We begin with a simple list: items and their reported growth.
- System: HCC-2998 colon
- EXPERIMENT_DESCRIPTION: NCI-60 one-dose screen, 48 h (100 = growth as untreated, 0 = no growth, -100 = all killed)
- STATED_CONDITIONS: 10 µM unless noted
- Procedure: Growth inhibition of the HCC-2998 human tumor cell line is measured as a screen for anti-cancer activity. Cells are grown in 96 well plates and exposed to the test compound for 48 hours. Compounds are tested at a single concentration, which is 10^-5 M for most compounds. The reported endpoint is percent growth (GI% or GIPRCNT), where numbers from 0 - 100% represent growth inhibition, and numbers from -100% - 0 represent cell death. For example, a value of 40 represents 60% growth inhibition. […]
Compounds without any hit were thinned out: in the full panel of roughly 83,000, 20% have a hit.
Just the number in %, nothing appended.

Guide cases for growth, answers given:
Nc1ncccc1O = 97.4
Cc1cc2oc(/C=C/c3ccccc3)cc(=O)c2c(C)c1Cl = 106
CCN1C(=O)N(c2ccccc2)C2NC(=S)N(/N=C/C=C/c3ccccc3OC)C21 (stereo not given) = 14.8

Request the reported growth associated with O=S(Nc1ccccc1)c1ccc(Cl)cc1 (stereo not given)
95.4

Now try `C=C1C(=O)O[C@H]2[C@H]1CC/C(COC(=O)/C=C\C(=O)NCc1ccc(Cn3c(=O)sn(CCCCl)c3=O)cc1)=C\CC[C@@]1(C)O[C@@H]21` .
100
